Target: FTM-NN protein (membrane anchorless form of the Long fusion protein of hRSV, 70 kDa) (human respiratory syncytial virus, …, UniProt P12568 26-524)
Assay: competition ELISA, periplasmic extract diluted 1:1000, competitor 101F Fab
Examples of binders with documented % Inhibition 101F Fab (1:1000 PE) follow.
Report the value in % with no unit label.

[ask] Which measured % Inhibition 101F Fab (1:1000 PE) value corresponds to PMP19E2 (VHH) VHH: EVQLVESGGGLVQPGGSLRLSCAASGLTLDYYALGWFRQAPGKEREGVSCISSSDHTTTYTDSVKGRFTISWDNAKNTLYLQMNSLKPEDTAVYYCAADPALGCYSGSYYPRYDFWGQGTQVTVSS ?
[reply] 5

[ask] Try this binder next: PMP13B4 (VHH) VHH: EVQLVESGGGLVQAGGSLRLSCAASGFTFDDYAIGWFRQAPGKEREAVSCISSSDGSTYYADSVKGRFTISSDNAKNMVYLQMNSLKPEDTAVYYCAADLLRTAVGCLDYRGTYYPRTTMDYRGKGTLVTVSS
[reply] 20

[ask] Now consider PMP13E12 (VHH) VHH: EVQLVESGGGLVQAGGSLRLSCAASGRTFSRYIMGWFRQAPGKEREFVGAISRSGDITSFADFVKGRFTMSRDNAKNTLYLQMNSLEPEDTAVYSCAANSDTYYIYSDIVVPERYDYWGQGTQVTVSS and answer again.
[reply] 8

Could you now consider this next binder?
[ask] Can you share its % Inhibition 101F Fab (1:1000 PE)? I mean this binder: PMP8B10 (VHH) VHH: EVQLVESGGGLVQAGASLRLSCAASGLAFSRYAMGWFRQAPGKERESVAAISSSGDNIYYADSVKGQFTMSRDNAKSSVYLQMINLKPEDTAVYYCAATSPLFVASDYFEASRYGYWGQGTQVTVSS
[reply] 6
